Procedure text: ATG_EGR_CIS: Attagene CIS-FACTORIAL HepG2 Assay for human Early Growth Response 1 (EGR1) (AID 2282938)
Run conditions: HepG2 Attagene CIS-FACTORIAL EGR reporter mRNA; actives raise or lower the signal
Active and inactive are the calls of the source. The calls were made as follows: active = hit-call score of the fitted dose curve at least 0.9, where 1 is the maximum; inactive = score below 0.9.
Outcomes: 1 (yes) for active, 0 (no) for inactive

Molecule: C[C@]12CCC(=O)C=C1CC[C@@H]1[C@@H]2CC[C@]2(C)C(=O)CC[C@@H]12
Assigned class: 0 (no)

Molecule: CO/C=C(/C(=O)OC)c1ccccc1COc1cccc(C(F)(F)F)n1
Assigned class: 1 (yes)

Molecule: ClC(Cl)=C(c1ccc(Cl)cc1)c1ccc(Cl)cc1
Assigned class: 0 (no)

Molecule: Cc1cccc(C)c1N
Assigned class: 0 (no)

Molecule: Cc1cc2c3c(c1)C(c1ccccc1)=N[C@@H](NC(=O)c1ccncc1)C(=O)N3CC2
Assigned class: 1 (yes)

Molecule: CC(C)C(=O)OCC(C)(C)C(OC(=O)C(C)C)C(C)C (configuration not stated)
Assigned class: 0 (no)

Molecule: Cc1cccc([N+](=O)[O-])c1
Assigned class: 0 (no)

Molecule: Clc1ccc(Cl)cc1
Assigned class: 0 (no)

Molecule: COS(=O)(=O)OC
Assigned class: 0 (no)

Molecule: O=C(NC(=O)c1c(F)cccc1F)Nc1cc(Cl)c(OC(F)(F)C(F)F)c(Cl)c1
Assigned class: 0 (no)

Molecule: CC(c1ccc(O)cc1)(c1ccc(O)cc1)c1ccc(O)cc1
Assigned class: 1 (yes)

Molecule: CCOC(=O)C(O)(c1ccc(Cl)cc1)c1ccc(Cl)cc1
Assigned class: 0 (no)

Molecule: N#Cc1ccc(N(CC(N)=O)CC(F)(F)F)cc1C(F)(F)F
Assigned class: 1 (yes)

Molecule: C=CC(=O)NCNC(=O)C=C
Assigned class: 0 (no)

Molecule: Cc1ccccc1CO[C@@H]1C[C@@]2(C(C)C)CC[C@]1(C)O2
Assigned class: 0 (no)

Molecule: C1CC2OC2CC1C1CO1 (configuration not stated)
Assigned class: 0 (no)

Molecule: CC(C)(O)C(=O)Nc1ccc([N+](=O)[O-])c(C(F)(F)F)c1
Assigned class: 0 (no)

Molecule: CN(C)c1nc(=O)n(C2CCCCC2)c(=O)n1C
Assigned class: 0 (no)

Molecule: O=C(NC(=O)c1cc(F)c(F)cc1Cl)Nc1cc(F)ccc1N1CCC(C(=O)O)CC1
Assigned class: 0 (no)

Molecule: CN(C)CCO
Assigned class: 0 (no)

Molecule: O=NN(c1ccccc1)c1ccccc1
Assigned class: 0 (no)

Molecule: c1ccc(-c2ccccc2)cc1
Assigned class: 0 (no)

Molecule: ClC1=C(Cl)[C@]2(Cl)[C@@H]3[C@@H](Cl)[C@H]4O[C@H]4[C@@H]3C1(Cl)C2(Cl)Cl
Assigned class: 1 (yes)

Molecule: c1cc2ccc3cccc4ccc(c1)c2c34
Assigned class: 0 (no)

Molecule: COc1ccc(O)c(C(C)(C)C)c1
Assigned class: 1 (yes)

Molecule: Sc1ccccc1
Assigned class: 0 (no)

Molecule: CCCCCCCCCC[N+](C)(C)CCCCCCCCCC
Assigned class: 1 (yes)

----------
Target under test: Oxysterols receptor LXR-alpha (Homo sapiens) (UniProt Q13133)
Sequence (Q13133 whole entry, looked up): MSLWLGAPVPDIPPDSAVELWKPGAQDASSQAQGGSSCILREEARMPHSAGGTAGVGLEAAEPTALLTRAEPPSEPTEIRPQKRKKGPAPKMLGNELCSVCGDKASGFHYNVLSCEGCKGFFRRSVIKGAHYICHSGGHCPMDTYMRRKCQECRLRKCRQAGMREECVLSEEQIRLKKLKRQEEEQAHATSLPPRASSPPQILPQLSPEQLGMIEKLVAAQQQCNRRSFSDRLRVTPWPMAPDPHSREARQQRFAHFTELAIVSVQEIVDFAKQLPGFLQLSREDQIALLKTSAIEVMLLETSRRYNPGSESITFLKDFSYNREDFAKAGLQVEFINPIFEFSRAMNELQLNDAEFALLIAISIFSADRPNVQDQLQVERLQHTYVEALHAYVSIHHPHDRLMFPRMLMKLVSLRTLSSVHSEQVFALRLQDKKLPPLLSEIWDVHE
Procedure text: ATG_LXRa_TRANS: Attagene TRANS-FACTORIAL HepG2 Assay for human Liver X Receptor alpha (LXRa) (AID 2282980)
Run conditions: HepG2 Attagene TRANS reporter, LXRa transactivation
Results filed as inconclusive are left out. Calls of active or inactive are those of the source. The calls were made as follows: active = hit-call score of the fitted dose curve at least 0.9, where 1 is the maximum; inconclusive = response in the unintended direction; inactive = score below 0.9.

Chem smiles: O=C(O)C(F)(F)C(F)(F)C(F)(F)C(F)(F)C(F)(F)C(F)(F)C(F)(F)C(F)(F)C(F)(F)F
AC50: inactive
--
Chem smiles: N#Cc1ccc(N(CC(N)=O)CC(F)(F)F)cc1C(F)(F)F
AC50: inactive
--
Chem smiles: CCOC(=O)C(O)(c1ccc(Cl)cc1)c1ccc(Cl)cc1
AC50: inactive
--
Chem smiles: CC(C)(c1ccccc1)c1ccc(O)cc1
AC50: inactive
--
Chem smiles: Cc1ccccc1O
AC50: inactive
--
Chem smiles: Cc1cc(-c2ccc(N)c(C)c2)ccc1N
AC50: inactive
--
Chem smiles: O=S(=O)(O)C(F)(F)C(F)(F)C(F)(F)C(F)(F)F
AC50: inactive
--
Chem smiles: Nn1cnnc1
AC50: inactive
--
Chem smiles: O=C(O)C(F)(F)C(F)(F)C(F)(F)C(F)(F)C(F)(F)F
AC50: inactive
--
Chem smiles: Clc1ccc(Cl)cc1
AC50: inactive
--
Chem smiles: Cc1cc(O)ccc1Cl
AC50: 24.3 µM (active)
--
Chem smiles: C=CC(N)=O
AC50: inactive
--
Chem smiles: NS(=O)(=O)C(F)(F)C(F)(F)C(F)(F)C(F)(F)C(F)(F)C(F)(F)C(F)(F)C(F)(F)F
AC50: inactive

// data source = PubChem BioAssay (EPA / NIEHS)
